Target: Cytochrome P450 2C19 (Homo sapiens) (UniProt P33261)
Sequence (P33261 whole entry, looked up): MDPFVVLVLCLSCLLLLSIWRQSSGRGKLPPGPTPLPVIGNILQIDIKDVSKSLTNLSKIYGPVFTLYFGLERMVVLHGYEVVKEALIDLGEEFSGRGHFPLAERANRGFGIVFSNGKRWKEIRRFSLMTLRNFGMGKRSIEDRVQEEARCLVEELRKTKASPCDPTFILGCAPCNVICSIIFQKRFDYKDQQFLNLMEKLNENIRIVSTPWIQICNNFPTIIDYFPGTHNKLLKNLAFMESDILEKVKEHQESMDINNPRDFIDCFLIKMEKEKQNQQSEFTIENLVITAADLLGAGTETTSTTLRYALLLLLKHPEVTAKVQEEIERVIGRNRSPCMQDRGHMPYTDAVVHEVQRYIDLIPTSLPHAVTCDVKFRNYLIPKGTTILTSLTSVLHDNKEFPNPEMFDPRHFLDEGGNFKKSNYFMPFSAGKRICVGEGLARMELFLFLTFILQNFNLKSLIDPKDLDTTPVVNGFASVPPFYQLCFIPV
Test: Cytochrome panel assay with activity outcomes
Conditions: recombinant CYP, pro-luciferin dealkylation, luminescence, p450-cyp2c19; series mostly up to 57.1 µM
Protocol: The P450 gene superfamily is involved in the metabolism and clearance of xenobiotics. This assay used various human CYP P450 isozymes to measure the dealkylation of various pro-luciferin substrates to luciferin. The luciferin is then measured by luminescence after the addition of a luciferase detection reagent. […] Inhibitors and some substrates limit the production of luciferin, and decrease measured luminescence. […] 8, Detection, 1 sec, ViewLux luminescent read […]
Hit rate of the full screen: of about 16,000 compounds, about 5,800 (36%) were called active. Another 23% or so got no clear call; they are omitted. Calls follow the shape of the dose curve; as a rule, active = well fitted curve in the direction sought with a large enough effect; inconclusive = small, poorly fitted or top-dose-only effect, or effect the other way; inactive = no such curve, though single readings can be large or run the other way. This is one part of the list.
Write down one outcome, taken from active, inactive

Q) Hi, sorry to bother you, what did the test record for O=C(NC1CCCC1)c1cccnc1N1CCCCCC1 ?
A) active

Q) Hi, sorry to bother you, what did the test record for O=c1[nH]ncn2cccc12 ?
A) inactive

Q) Hi, sorry to bother you, what did the test record for COc1ccccc1CCn1c(=O)c(-c2cc(F)cc(F)c2)nc2cncnc21 ?
A) active

Q) Hi, sorry to bother you, what did the test record for CN(C)S(=O)(=O)c1ccc(C(=O)Nc2ccc(CN3CCCC3)cc2)cc1 ?
A) inactive

Q) Hi, sorry to bother you, what did the test record for CCCC/C=C/C(NC(=O)Oc1cccc(C(F)(F)F)c1)c1ccccc1 (configuration not stated) ?
A) active

Q) Hi, sorry to bother you, what did the test record for Cc1nn(Cc2ccc([N+](=O)[O-])cc2)c(=O)n1-c1cccc(F)c1 ?
A) active

Q) Hi, sorry to bother you, what did the test record for COCCn1c(=O)c(-c2cc(F)cc(F)c2)nc2cncnc21 ?
A) inactive

Q) Hi, sorry to bother you, what did the test record for CN(C)S(=O)(=O)Oc1ccsc1C(=O)Nc1ccc(Cl)cc1 ?
A) active

Q) Hi, sorry to bother you, what did the test record for N#Cc1ccc(C(=O)Nc2ccc(N3CCN(C(=O)c4ccco4)CC3)cc2)c(F)c1 ?
A) inactive

Q) Hi, sorry to bother you, what did the test record for O=S(Cc1ccccc1)CC(O)(c1ccccc1)c1ccccc1 (configuration not stated) ?
A) active

Q) Hi, sorry to bother you, what did the test record for COC(=O)CNC(=O)CN1C(=O)N(c2ccc(Cl)cc2)C(N(O)C(=O)Nc2ccc(Cl)cc2)C1(C)C (configuration not stated) ?
A) active

Q) Hi, sorry to bother you, what did the test record for Cc1ccccc1C(=O)N1CCN(c2ccc([N+](=O)[O-])c(NCc3ccco3)c2)CC1 ?
A) active

Q) Hi, sorry to bother you, what did the test record for CCCC/C=C/C(NC(=O)c1ccc(-c2ccccc2)cc1)c1ccccc1 (configuration not stated) ?
A) inactive

Q) Hi, sorry to bother you, what did the test record for O=C(O)c1ccccc1C(=O)Nc1nccs1 ?
A) inactive

Q) Hi, sorry to bother you, what did the test record for CC1CCN(C(=S)c2ccc(O)cc2)CC1 ?
A) active

Q) Hi, sorry to bother you, what did the test record for CCCC/C=C/C(NC(=O)c1ccccc1)c1ccccc1 (configuration not stated) ?
A) active

Q) Hi, sorry to bother you, what did the test record for Cn1nc(C(=O)NC2CCCCC2)c2ccccc2c1=O ?
A) inactive
